B1: LINE1-full (parent)
chain: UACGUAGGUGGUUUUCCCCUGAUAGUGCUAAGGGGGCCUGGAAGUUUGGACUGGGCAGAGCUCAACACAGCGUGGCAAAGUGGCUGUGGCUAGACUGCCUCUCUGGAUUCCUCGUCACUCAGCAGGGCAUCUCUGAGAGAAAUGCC

Variants of: B1
Experiment: self-cleavage, relative activity (ratio to wild type); higher = more cleavage; in vitro, sequencing; the parent is a self-cleaving ribozyme
Would you mind telling me the reported self-cleavage of each entry?
Answers are plain numbers.

Reference set, count: 3
- mutation_list: "A124G A136C"
  result_type: "self-cleavage"
  assay_result: 1.19
- mutation_list: "U62C G93U"
  result_type: "self-cleavage"
  assay_result: 0.03
- mutation_list: "U15A C110A"
  result_type: "self-cleavage"
  assay_result: 1.16

Moving on to another variant below.
State, in one line, measured self-cleavage of G75A A140G
0.88
